tested on: Solanum tuberosum; assay: Inhibition of Solanum tuberosum (potato) inner mitochondrial membrane NDH2 assessed as […] reductase activity at 100 uM relative to control
Calls of active or inactive are those of the source. The calls are words filed in the database; no cut-off is given here.
reported endpoint: inhibition

# example entries with known answers
entry smiles	inhibition
CCCCCCCOc1ccc(C(=O)NCc2ccc(OC)c(OC)c2)cc1	inactive
CCCCCCCCc1ccc(C(=O)NCc2ccc(OC)c(OC)c2)cc1	inactive
CCCCCCCCCCNC(=O)CCc1ccc(OC)c(OC)c1	inactive
CCCCCCCCCCCNC(=O)Cc1ccc(OC)c(OC)c1	inactive
CCCCCCCCCC(=O)NCCCc1ccc(OC)c(OC)c1	inactive

I am curious: what inhibition value has been reported for CCCCCCCOc1cccc(C(=O)NCc2ccc(OC)c(OC)c2)c1 ? inactive

What do you get for CCCCCCCCCCCC(=O)NCc1cc(OC)cc(OC)c1 ? inactive

Request: CCCCCCCCCCCC(=O)NCc1ccccc1 inactive

How about CCCCCCCOc1ccc(C(=O)NCc2ccc(OC)c(OC)c2)c(O)c1 ? 30%

Now try CCCCCCCCCCCC(=O)NCc1ccc(Cl)c(Cl)c1 . inactive

Same again, this time with COc1ccc(CNC(=O)c2ccc3ccccc3c2)cc1OC inactive

Another molecule: COc1ccc(CNC(=O)c2ccc(Oc3ccc(C(C)(C)C)cc3)cc2)cc1OC 100%

* * *

system: Escherichia coli; assay: Inhibition of Escherichia coli GR19N NDH2 assessed as […] reductase activity at 100 uM relative to control
Calls of active or inactive are those of the source. The calls are words filed in the database; no cut-off is given here.
reported endpoint: inhibition

Solved entries:
entry smiles	target entity	reported endpoint	test result
COc1ccc(CNCc2ccc(Oc3ccc(C(C)(C)C)cc3)cc2)cc1OC	Escherichia coli	inhibition	60%
CCCCCCCCCCCC(=O)NCc1ccc(OC)c(OC)c1	Escherichia coli	inhibition	inactive
COc1ccc(CNC(=O)c2ccc(C(C)(C)C)cc2)cc1OC	Escherichia coli	inhibition	inactive
CCCCCCCCCCCC(=O)N1CCc2cc(OC)c(OC)cc2C1	Escherichia coli	inhibition	inactive

Query (compound): CCCCCCCCCCCC(=O)N(C)Cc1cc(OC)ccc1OC ; field requested: inhibition 30%

* * *

system: Escherichia coli; assay: Inhibition of Escherichia coli GR19N NDH2 assessed as […] reductase activity at 100 uM relative to control
Activity calls are given as the source filed them. No cut-off for these calls is given here.
reported endpoint: inhibition

Illustrative cases are given below, each with its answer.
entry smiles	inhibition
CCCCCCCOc1ccc(C(=O)NCc2ccc(OC)c(OC)c2)c(O)c1	90%
CCCCCCCCCCCC(=O)NCc1cc(C)ccc1C	60%
CCCCc1ccc(C(=O)NCc2ccc(OC)c(OC)c2)cc1	inactive
CCCCCCCOc1ccc(C(=O)NCc2ccc(OC)c(OC)c2)cc1	60%
CCCCCCCCCCCC(=O)NCc1ccc(OC)cc1OC	inactive
CCCCCCCCc1ccc(C(=O)NCc2cc(OC)ccc2OC)cc1	60%
COc1ccc(OC)c(CNC(=O)c2ccc(Oc3ccc(C(C)(C)C)cc3)cc2)c1	60%
CCCCCCCCCCCC(=O)NCc1cc(OC)ccc1OC	inactive

# query: inhibition of entry CCCCCCCOc1cccc(C(=O)NCc2ccc(OC)c(OC)c2)c1 60%

Next entry: C=C(C)[C@H]1Cc2c(ccc3c2O[C@@H]2COc4cc(OC)c(OC)cc4[C@@H]2C3=O)O1 70%

Next compound up: CCCCCCCCCCCC(=O)NCc1ccc(Cl)c(Cl)c1 70%

Moving on to the next compound: CCCCCCCCCCCC(=O)NCc1ccc2c(c1)OCO2 60%

Please do the same for CCCCCCCCCCCC(=O)N(C)Cc1ccc(OC)c(OC)c1 as well. inactive

Another compound: COc1ccc(CN(C)C(=O)c2ccc(Oc3ccc(C(C)(C)C)cc3)cc2)cc1OC 40%

Ok, now COc1ccc(CNC(=O)c2ccccc2C)cc1OC inactive

Next compound: COc1ccc(CNC(=O)c2ccc(Oc3ccc(Cc4ccccc4)cc3)cc2)cc1OC 50%

* * *

tested on: Escherichia coli; assay: Inhibition of Escherichia coli GR19N NDH2 assessed as […] reductase activity at 100 uM relative to control
Activity calls are given as the source filed them. The calls are words filed in the database; no cut-off is given here.
reported endpoint: inhibition

Previously resolved entries follow.
entry smiles	target entity	reported endpoint	test result
COc1ccc(CNC(=O)c2ccc(Oc3ccccc3C)cc2)cc1OC	Escherichia coli	inhibition	90%
COc1ccc(CNC(=O)c2ccc3ccccc3c2)cc1OC	Escherichia coli	inhibition	inactive
CCCCCCCCCCCC(=O)NCc1ccccc1	Escherichia coli	inhibition	inactive
COc1ccc(CNC(=O)c2ccc(OCc3ccccc3)cc2)cc1OC	Escherichia coli	inhibition	inactive
COc1ccc(CNC(=O)c2ccc(-c3ccccc3)cc2)cc1OC	Escherichia coli	inhibition	inactive

Field: inhibition (Escherichia coli). Entry: CCCCCCCCc1ccc(C(=O)N(C)Cc2ccc(OC)c(OC)c2)cc1 60%

Same for CCCCCCCCCCCC(=O)NCc1cccc(OC)c1 inactive

Now this one: CCC(C)(C)c1ccc(Oc2ccc(C(=O)NCc3ccc(OC)c(OC)c3)cc2)cc1 60%

Same read-out for CCCCCCCCCCCC(=O)NCc1cc(OC)cc(OC)c1 ? inactive

Same thing, different molecule: CCCCCCCCCCC(=O)NCCc1ccc(OC)c(OC)c1 inactive

Please do the same for CCCCCCCCCCCNC(=O)Cc1ccc(OC)c(OC)c1 as well. inactive
